# subject_of_test: Glucagon-like peptide 1 receptor (Homo sapiens, UniProt P43220)
# Sequence (P43220 whole entry): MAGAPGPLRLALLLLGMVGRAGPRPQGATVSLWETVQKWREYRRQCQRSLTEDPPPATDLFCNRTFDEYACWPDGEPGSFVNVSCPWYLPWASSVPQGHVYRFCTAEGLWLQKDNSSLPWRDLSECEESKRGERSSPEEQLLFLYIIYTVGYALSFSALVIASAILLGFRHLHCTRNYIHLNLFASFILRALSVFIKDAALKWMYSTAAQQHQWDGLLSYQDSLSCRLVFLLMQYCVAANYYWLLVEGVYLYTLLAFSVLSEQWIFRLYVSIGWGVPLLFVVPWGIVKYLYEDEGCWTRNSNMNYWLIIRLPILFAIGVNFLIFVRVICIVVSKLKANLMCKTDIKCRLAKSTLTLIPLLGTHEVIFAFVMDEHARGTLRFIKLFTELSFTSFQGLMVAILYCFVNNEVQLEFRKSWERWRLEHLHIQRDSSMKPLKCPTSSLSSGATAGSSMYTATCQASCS
# experiment_description: Agonist activity at human GLP-1 expressed in HEK293 cells assessed as […] in intracellular cAMP accumulation incubated for 60 mins by HTRF assay
pEC50: −log10 of the molar value.
The reader will find reported pEC50 values listed item by item below.

mol_smiles: COCCn1ncc2c(F)c(-n3ccn(-c4c5c(nn4-c4cc(C)c(F)c(C)c4)CCN(C(=O)c4cc6cc([C@H]7CCOC(C)(C)C7)ccc6n4[C@@]4(c6noc(=O)[nH]6)C[C@@H]4C)[C@H]5C)c3=O)ccc21
pEC50: 8.68

mol_smiles: COc1nccc(-c2ccc3c(c2)cc(C(=O)N2CCc4nn(-c5cc(C)c(F)c(C)c5)c(-n5ccn(-c6ccc7c(cnn7C)c6F)c5=O)c4[C@@H]2C)n3[C@@]2(c3noc(=O)[nH]3)C[C@@H]2C)c1C
pEC50: 8.57
